- Test Parameters: 353.15 K; 25000 kPa; Liquid
± gives the expanded uncertainty stated by the source.
Here the recorded mass density is given for each entry.
The answer consists of two parts: a number and, after it, its unit.

Example entries begin here.
Compound: CCCCCCCCn1cc[n+](C)c1.O=S(=O)([N-]S(=O)(=O)C(F)(F)F)C(F)(F)F
Result: 1290 ± 5 kg/m3

Compound: CCn1cc[n+](C)c1.F[B-](F)(F)F [1-ethyl-3-methylimidazolium tetrafluoroborate]
Result: 1269 ± 4 kg/m3

Compound: CCCCCCCn1cc[n+](C)c1.O=S(=O)([N-]S(=O)(=O)C(F)(F)F)C(F)(F)F
Result: 1316 ± 5 kg/m3

Field: next compound
Enquiry: Field request: mass density | item: `CCn1cc[n+](C)c1.O=S(=O)([N-]S(=O)(=O)C(F)(F)F)C(F)(F)F`
Return: 1483 ± 7 kg/m3
